Overview of reported koff across a group of binders:
ASSAYED TARGET: T1, FTM-NN protein (membrane anchorless form of the Long fusion protein, 70 kDa) (human respiratory syncytial virus, …, UniProt P12568 26-524)
T1 construct: domain: membrane anchorless form of the fusion protein
ASSAY TEXT: SPR (Biacore), FTM-NN immobilised
I only need the number, in s⁻¹, no unit after it.

- BINDER: "LG191D3 (VHH) VHH: EVQLVESGGGLVQAGGSLRLSCEASGRTYSRYGMGWFRQAPGKEREFVAAVSRLSGPRTVYADSVKGRFTISRDNAENTVYLQMNSLKPEDTAVYTCAAELTNRNSGAYYYAWAYDYWGQGTQVTVSS"
  QUANTITATIVE READOUT: 0.0028

I am curious: what koff value has been reported for RSVPMP15B3 (VHH) VHH: EVQLVESGGGLVQPGGSLRLSCAASGLTLDYYALGWFRQAPGKEREGVSCISSSDHSTTYTDSVKGRFTISWDNAKNTLYLQMNSLKPGDTAVYYCAADPALGCYSGSYYPRYDYWGQGTQVTVSS ?
0.00027

What do you have for LG191E4 (VHH) VHH: EVQLVESGGGLVQAGGSLRLSCAASGPTFSADTMGWFRQAPGKEREFVATIPWSGGIAYYSDSVKGRFTMSRDNAKNTVDLQMNSLKPEDTALYYCAGSSRIYIYSDSLSERSYDYWGQGTQVTVSS ?
0.00015

What do you have for RSVPMP7B2 (VHH) VHH: EVQLVESGGGLVQAGDSLRLSCAASGRTFSSYAMGWFRQAPGKEREFVAAISWSDGSTYYADSVKGRFTISRDNAKNTVYLQMNSLKPEDTAVYYCAADLTSTNPGSYIYIWAYDYWGQGTQVTVSS ?
0.00065

What do you have for RSVPMP15H8 (VHH) VHH: EVQLVESGGGLVQAGGSLRLSCAASGRSFSNYVLGWFRQAPGKEREFVAAISFRGDSAIGAPSVEGRFTISRDNAKNTGYLQMNSLVPDDTAVYYCGAGTPLNPGAYIYDWSYDYWGRGTQVTVSS ?
0.021

What do you have for RSVNC41 (VHH) VHH: EVQLVESGGGLVQAGGSLSISCAASGGSLSNYVLGWFRQAPGKEREFVAAINWRGDITIGPPNVEGRFTISRDNAKNTGYLQMNSLAPDDTAVYYCGAGTPLNPGAYIYDWSYDYWGRGTQVTVSS ?
0.0067

What do you have for RSVNC23 (VHH) VHH: EVQLVESGGGLVQPGGSLRLSCAASGRTFSSIAMGWFRQAPGKEREFVAAISWSRGRTFYADSVKGRFIISRDDAANTAYLQMNSLKPEDTAVYYCAVDTASWNSGSFIYDWAYDHWGQGTQVTVSS ?
0.00074
